# maps each entry to its Drug in emulsion÷ drug in aqueous phase
test: Distribution of drug between PFC phase and aqueous phase of Dispersion B; assay type: physicochemical; conditions: Dispersion B; blending for 30 minutes

COMPOUND	Drug in emulsion÷ drug in aqueous phase
COCC(O)Cn1ccnc1[N+](=O)[O-] (stereo not shown) [Misonidazole]	0.04
COc1cccc2c1C(=O)c1c(O)c3c(c(O)c1C2=O)C[C@@](O)(C(C)=O)C[C@@H]3O[C@H]1C[C@H](N)[C@H](O)[C@H](C)O1 [Daunomycin]	3.77
CN(Cc1cnc2nc(N)nc(N)c2n1)c1ccc(C(=O)N[C@@H](CCC(=O)O)C(=O)O)cc1 [MTX, methotrexate]	0.07
NCCCNCCSP(=O)(O)O [WR-2721]	0.05

###

Catalogue of logP values
assay: Octanol:water partition coefficient

MOLECULE	logP
COCC(O)Cn1ccnc1[N+](=O)[O-] (stereo not shown) [Misonidazole]	-0.367
COc1cccc2c1C(=O)c1c(O)c3c(c(O)c1C2=O)C[C@@](O)(C(C)=O)C[C@@H]3O[C@H]1C[C@H](N)[C@H](O)[C@H](C)O1 [Daunomycin]	-0.102
CC[C@]1(O)C[C@H]2CN(CCc3c([nH]c4ccccc34)[C@@](C(=O)OC)(c3cc4c(cc3OC)N(C=O)[C@H]3[C@@](O)(C(=O)OC)[C@H](OC(C)=O)[C@]5(CC)C=CCN6CC[C@]43[C@@H]65)C2)C1 [Vincristine]	2.83
NCCCNCCSP(=O)(O)O [WR-2721]	-2.7
